Measured values drawn from patent US9758538B2 for this set.

Biological target: truncated PI3Kα (p110α/iSH2 p85α), PI3KA_Act (Homo sapiens (Human), UniProt P42336)
Sequence (P42336 whole entry, the tested form may be a part): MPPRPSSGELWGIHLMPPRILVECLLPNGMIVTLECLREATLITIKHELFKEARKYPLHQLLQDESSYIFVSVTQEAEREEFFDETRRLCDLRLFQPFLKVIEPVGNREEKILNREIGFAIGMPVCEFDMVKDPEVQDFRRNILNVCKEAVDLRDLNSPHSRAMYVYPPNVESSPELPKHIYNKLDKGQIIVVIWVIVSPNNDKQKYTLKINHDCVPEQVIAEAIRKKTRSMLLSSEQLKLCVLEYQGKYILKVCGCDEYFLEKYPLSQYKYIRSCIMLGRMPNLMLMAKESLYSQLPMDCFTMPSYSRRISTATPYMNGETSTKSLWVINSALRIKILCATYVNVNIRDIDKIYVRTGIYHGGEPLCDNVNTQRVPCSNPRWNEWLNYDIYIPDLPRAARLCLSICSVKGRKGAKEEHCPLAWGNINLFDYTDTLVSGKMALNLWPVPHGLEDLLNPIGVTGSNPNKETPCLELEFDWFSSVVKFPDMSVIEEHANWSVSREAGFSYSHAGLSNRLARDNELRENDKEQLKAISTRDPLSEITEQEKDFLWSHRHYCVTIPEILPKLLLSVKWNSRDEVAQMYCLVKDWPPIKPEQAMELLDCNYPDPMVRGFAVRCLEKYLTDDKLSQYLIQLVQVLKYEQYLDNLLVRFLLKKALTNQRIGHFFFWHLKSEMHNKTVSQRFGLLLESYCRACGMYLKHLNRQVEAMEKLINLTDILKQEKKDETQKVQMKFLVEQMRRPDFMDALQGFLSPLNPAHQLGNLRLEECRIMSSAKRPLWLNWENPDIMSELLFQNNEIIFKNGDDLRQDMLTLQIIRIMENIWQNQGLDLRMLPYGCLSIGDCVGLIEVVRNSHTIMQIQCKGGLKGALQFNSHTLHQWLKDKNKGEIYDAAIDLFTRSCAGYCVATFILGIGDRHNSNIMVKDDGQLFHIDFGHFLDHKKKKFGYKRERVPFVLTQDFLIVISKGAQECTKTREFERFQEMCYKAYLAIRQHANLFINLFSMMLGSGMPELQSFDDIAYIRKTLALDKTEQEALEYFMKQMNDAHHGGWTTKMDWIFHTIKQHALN
Assay: PI3Kα biochemical kinase assay, fluorescence polarization format (PI3KA_Act)
Conditions: 0.5 nM p110α/iSH2 p85, 1 mM ATP, 30 μM PIP2, 15-min preincubation; Morrison equation fit; read-out: PI3KA_Act Ki
QUANTITY: Ki

QUERY: So what's the measured Ki for this one? CC(O)[C@]1(Nc2cc(-c3cnc(N)nc3)nc(N3CCOCC3)n2)CCN(C(=O)OC(C)(C)C)C1 (stereo partly shown)
RESULT: 1.62 nM

QUERY: So what's the measured Ki for this one? "C[C@H]1COCCN1c1nc(N[C@@]2(CO)CCN(C(=O)OC(C)(C)C)C2)c(F)c(-c2cnc(N)nc2)n1"
RESULT: < 0.018 nM

QUERY: So what's the measured Ki for this one? "Nc1ncc(-c2cc(N[C@@]3(CO)CCN(C(=O)N4CCCC4)C3)nc(N3CCOCC3)n2)cn1"
RESULT: 0.267 nM

QUERY: So what's the measured Ki for this one? "COC(=O)N1CCC[C@@](CO)(Nc2nc(N3CCOCC3)nc(-c3cnc(N)nc3)c2F)C1"
RESULT: 3.07 nM

QUERY: So what's the measured Ki for this one? "C[C@H]1COCCN1c1nc(N[C@@]2(CO)CCN(C(=O)OC3CC3)C2)c(F)c(-c2cnc(N)nc2)n1"
RESULT: < 0.018 nM

QUERY: So what's the measured Ki for this one? "CC(C)(C)OC(=O)N1CC(CO)(Nc2cc(-c3cnc(N)nc3)nc(N3CCOCC3)n2)C1"
RESULT: 0.128 nM

QUERY: So what's the measured Ki for this one? "COC(=O)N1CCC[C@](CO)(Nc2nc(N3CCOCC3)nc(-c3cnc(N)nc3)c2F)C1"
RESULT: < 0.018 nM

###

Assignment: determine reported pKi for the given compounds.
Target: truncated PI3Kα (p110α/iSH2 p85α), PI3KA_Act (Homo sapiens (Human))
Test: PI3Kα biochemical kinase assay, fluorescence polarization format (PI3KA_Act)
Conditions: 0.5 nM p110α/iSH2 p85, 1 mM ATP, 30 μM PIP2, 15-min preincubation; Morrison equation fit; read-out: PI3KA_Act Ki
Remember, pKi is on a log scale: it is -log10 of the molar concentration.

QUERY: What value of pKi on truncated PI3Kα (p110α/iSH2 p85α), PI3KA_Act (Homo sapiens (Human)) does CC(C)OC(=O)N1CC[C@](CO)(Nc2nc(-c3cnc(N)nc3)nc(N3CCOCC3)n2)C1 [Example 83] have?
RESULT: 9.67

QUERY: What value of pKi on truncated PI3Kα (p110α/iSH2 p85α), PI3KA_Act (Homo sapiens (Human)) does CC(C)(C)OC(=O)N1CCC(CF)(Nc2cc(-c3cnc(N)nc3)nc(N3CCOCC3)n2)C1 (stereo not shown) [Example 110] have?
RESULT: 10.14

QUERY: What value of pKi on truncated PI3Kα (p110α/iSH2 p85α), PI3KA_Act (Homo sapiens (Human)) does COC[C@]1(Nc2cc(-c3cnc(N)nc3)nc(N3CCOCC3)n2)CCNC1 [Example 122] have?
RESULT: 7.67

QUERY: What value of pKi on truncated PI3Kα (p110α/iSH2 p85α), PI3KA_Act (Homo sapiens (Human)) does Nc1ncc(-c2cc(N[C@@]3(CO)CCCN(C(=O)OCC(F)F)C3)nc(N3CCOCC3)n2)cn1 [Example 141] have?
RESULT: 10.37

QUERY: What value of pKi on truncated PI3Kα (p110α/iSH2 p85α), PI3KA_Act (Homo sapiens (Human)) does Nc1ncc(-c2nc(N[C@@]3(CO)CCN(C(=O)OC4CC4)C3)nc(N3CCOCC3)n2)cn1 [Example 103] have?
RESULT: 9.97

QUERY: What value of pKi on truncated PI3Kα (p110α/iSH2 p85α), PI3KA_Act (Homo sapiens (Human)) does CCC1(Nc2cc(-c3cnc(N)nc3)nc(N3CCOCC3)n2)CCN(C(=O)OC(C)(C)C)C1 (stereo not shown) [Example 28] have?
RESULT: 9.70

QUERY: What value of pKi on truncated PI3Kα (p110α/iSH2 p85α), PI3KA_Act (Homo sapiens (Human)) does CC(C)OC(=O)N1CC[C@](CO)(Nc2cc(-c3cnc(N)nc3)nc(N3CCOCC3)n2)C1 [Example 44] have?
RESULT: 10.49

QUERY: What value of pKi on truncated PI3Kα (p110α/iSH2 p85α), PI3KA_Act (Homo sapiens (Human)) does CCOC(=O)N1CC[C@](COC)(Nc2cc(-c3cnc(N)nc3)nc(N3CCOCC3)n2)C1 [Example 121] have?
RESULT: 9.82

QUERY: What value of pKi on truncated PI3Kα (p110α/iSH2 p85α), PI3KA_Act (Homo sapiens (Human)) does CC(C)(C)OC(=O)N1CCC(CO)(Oc2cc(-c3cnc(N)nc3)nc(N3CCOCC3)n2)C1 (racemic) [Example 7] have?
RESULT: 10.24

QUERY: What value of pKi on truncated PI3Kα (p110α/iSH2 p85α), PI3KA_Act (Homo sapiens (Human)) does CC(C)(C)OC(=O)N1CC[C@](CO)(Nc2nc(-c3cnc(N)nc3)nc(N3CCOCC3)n2)C1 [Example 39] have?
RESULT: 9.98

QUERY: What value of pKi on truncated PI3Kα (p110α/iSH2 p85α), PI3KA_Act (Homo sapiens (Human)) does Cc1ncc(-c2cc(N[C@@]3(CO)CCN(C(=O)OC(C)(C)C)C3)nc(N3CCOCC3)n2)cn1 [Example 126] have?
RESULT: 8.72

QUERY: What value of pKi on truncated PI3Kα (p110α/iSH2 p85α), PI3KA_Act (Homo sapiens (Human)) does Nc1ncc(-c2cc(N[C@@]3(CO)CCN(C(=O)[C@@H](O)c4ccccc4)C3)nc(N3CCOCC3)n2)cn1 [Example 60] have?
RESULT: 7.90

QUERY: What value of pKi on truncated PI3Kα (p110α/iSH2 p85α), PI3KA_Act (Homo sapiens (Human)) does CCOC(=O)N1CC[C@@](CC)(Nc2cc(-c3cnc(N)nc3)nc(N3CCOCC3)n2)C1 [Example 95] have?
RESULT: 9.39

QUERY: What value of pKi on truncated PI3Kα (p110α/iSH2 p85α), PI3KA_Act (Homo sapiens (Human)) does COC(=O)N1CCC[C@@](CO)(Nc2cc(-c3cnc(N)nc3)nc(N3CCOCC3)n2)C1 [Example 6] have?
RESULT: 9.06

QUERY: What value of pKi on truncated PI3Kα (p110α/iSH2 p85α), PI3KA_Act (Homo sapiens (Human)) does CC(=O)N1CC[C@](C)(Nc2nc(N3CCOCC3)nc(-c3cnc(N)nc3)c2F)C1 [Example 106] have?
RESULT: 9.92

QUERY: What value of pKi on truncated PI3Kα (p110α/iSH2 p85α), PI3KA_Act (Homo sapiens (Human)) does Nc1ncc(-c2cc(N[C@]3(CO)CCNC3)nc(N3CCOCC3)n2)cn1 [Example 30] have?
RESULT: 8.62

QUERY: What value of pKi on truncated PI3Kα (p110α/iSH2 p85α), PI3KA_Act (Homo sapiens (Human)) does CC(C)C(=O)N1CC[C@](C)(Nc2nc(N3CCOCC3)nc(-c3cnc(N)nc3)c2F)C1 [Example 107] have?
RESULT: 9.64

QUERY: What value of pKi on truncated PI3Kα (p110α/iSH2 p85α), PI3KA_Act (Homo sapiens (Human)) does Nc1ncc(-c2cc(N[C@@]3(CO)CCN(C(=O)c4ncccn4)C3)nc(N3CCOCC3)n2)cn1 [Example 87] have?
RESULT: 10.07

QUERY: What value of pKi on truncated PI3Kα (p110α/iSH2 p85α), PI3KA_Act (Homo sapiens (Human)) does Cc1ncc(-c2cc(N[C@@]3(CO)CCN(C(=O)OCC(F)F)C3)nc(N3CCOCC3)n2)cn1 [Example 138] have?
RESULT: 9.25

QUERY: What value of pKi on truncated PI3Kα (p110α/iSH2 p85α), PI3KA_Act (Homo sapiens (Human)) does Nc1ncc(-c2cc(N[C@@]3(CO)CCN(c4ccccn4)C3)nc(N3CCOCC3)n2)cn1 [Example 85] have?
RESULT: 10.17

QUERY: What value of pKi on truncated PI3Kα (p110α/iSH2 p85α), PI3KA_Act (Homo sapiens (Human)) does CCOC(=O)N1CC[C@](CO)(Nc2nc(N3CCOCC3)nc(-c3cnc(N)nc3)c2F)C1 [Example 69] have?
RESULT: 9.82

QUERY: What value of pKi on truncated PI3Kα (p110α/iSH2 p85α), PI3KA_Act (Homo sapiens (Human)) does CCOC(=O)N1CC[C@](CO)(Nc2cc(-c3cnc(C)c(C#N)c3)nc(N3CCOCC3)n2)C1 [Example 128] have?
RESULT: 6.96

QUERY: What value of pKi on truncated PI3Kα (p110α/iSH2 p85α), PI3KA_Act (Homo sapiens (Human)) does Cn1ccnc1C(=O)N1CC[C@](CO)(Nc2cc(-c3cnc(N)nc3)nc(N3CCOCC3)n2)C1 [Example 73] have?
RESULT: 9.13

QUERY: What value of pKi on truncated PI3Kα (p110α/iSH2 p85α), PI3KA_Act (Homo sapiens (Human)) does Nc1ncc(-c2cc(N[C@@]3(CO)CCN(C(=O)[C@H](O)c4ccccc4)C3)nc(N3CCOCC3)n2)cn1 [Example 55] have?
RESULT: 9.43

QUERY: What value of pKi on truncated PI3Kα (p110α/iSH2 p85α), PI3KA_Act (Homo sapiens (Human)) does Nc1ncc(-c2nc(N3CCOCC3)nc(N[C@@]3(CO)CCNC3)c2F)cn1 [Example 137] have?
RESULT: 7.31

QUERY: What value of pKi on truncated PI3Kα (p110α/iSH2 p85α), PI3KA_Act (Homo sapiens (Human)) does Cc1ncc(-c2cc(N[C@@]3(CO)CCN(C(=O)C4(F)CC4)C3)nc(N3CCOCC3)n2)cn1 [Example 136] have?
RESULT: 9.13
